Test description: ATG_SREBP_CIS: Attagene CIS-FACTORIAL HepG2 Assay for human Sterol Regulatory Element Binding (SREBP) (AID 2282962)
Test context: HepG2 Attagene cis-factorial SREBP reporter, mRNA; actives raise or lower the signal
Activity calls are given as the source filed them. The calls were made as follows: active = hit-call score of the fitted dose curve at least 0.9, where 1 is the maximum; inactive = score below 0.9.
One label from this list, please: active, inactive

Record excerpt, results attached:
Qu. Can you look up the reported call for COCc1cnc(C2=NC(C)(C(C)C)C(=O)N2)c(C(=O)O)c1 (stereo not drawn) for me?
Ans. inactive

Qu. Can you look up the reported call for COP(=S)(OC)Oc1ccc([N+](=O)[O-])c(C)c1 for me?
Ans. active

Qu. Can you look up the reported call for COC(=O)c1c(C(F)F)nc(C(F)(F)F)c(C2=NCCS2)c1CC(C)C for me?
Ans. inactive

New cases:
Qu. Can you look up the reported call for CCNP(=S)(OC)O/C(C)=C/C(=O)OC(C)C (stereo not drawn) for me?
Ans. active

Qu. Can you look up the reported call for Clc1nc(Cl)nc(Nc2ccccc2Cl)n1 for me?
Ans. inactive

Qu. Can you look up the reported call for C=C(C)CN(CC)c1c([N+](=O)[O-])cc(C(F)(F)F)cc1[N+](=O)[O-] for me?
Ans. inactive

Qu. Can you look up the reported call for CNC(=O)Oc1cccc2ccccc12 for me?
Ans. inactive

Qu. Can you look up the reported call for CCOc1nc(F)cc2nc(S(=O)(=O)Nc3c(Cl)cccc3Cl)nn12 for me?
Ans. inactive

* * *

Read-out: Potassium channel subfamily K member 1 (KCNK1), KCNK1 (gene 3775)
Test description: LTEA_HepaRG_KCNK1: Life Technologies and Expression Analysis (LTEA) Assay for Potassium channel subfamily K member 1 (KCNK1) using HepaRG (AID 2283511)
Test context: mRNA level, 48 h; actives raise or lower the signal
Procedure: LTEA_HepaRG is a cell based, multiplexed-readout assay that uses HepaRG, a human liver cell line, with measurements taken at 48 hours after chemical dosing on a 96-well plate.LTEA_HepaRG_KCNK1 is one of 102 assay component(s) measured in the LTEA HepaRG cell culture assay. It is a marker of Hyperplasia.Data from the assay component LTEA_HepaRG_KCNK1 was analyzed into 1 endpoint. […]
Active and inactive are the calls of the source. How the source made its calls: active means hit-call score of the fitted dose curve at least 0.9, where 1 is the maximum; inactive means score below 0.9.
One label from this list, please: active, inactive

Qu. Can you look up the reported call for CC1(C)C(C(=O)OC(C#N)c2cccc(Oc3ccccc3)c2)C1(C)C (stereo not drawn) for me?
Ans. inactive

Qu. Can you look up the reported call for CS(=O)(=O)c1cc(C(F)(F)F)ccc1C(=O)c1cnoc1C1CC1 for me?
Ans. inactive

Qu. Can you look up the reported call for CN/C(=N\[N+](=O)[O-])NCc1cnc(Cl)s1 for me?
Ans. active

Qu. Can you look up the reported call for CCOc1nc(F)cc2nc(S(=O)(=O)Nc3c(Cl)cccc3Cl)nn12 for me?
Ans. inactive

Qu. Can you look up the reported call for Cc1cc(C)nc(Nc2ccccc2)n1 for me?
Ans. inactive

Qu. Can you look up the reported call for COC(=O)N(C(=O)N1CO[C@@]2(C(=O)OC)Cc3cc(Cl)ccc3C2=N1)c1ccc(OC(F)(F)F)cc1 for me?
Ans. inactive

New cases:
Qu. Can you look up the reported call for Cc1cnc(C2=NC(C)(C(C)C)C(=O)N2)c(C(=O)O)c1 (stereo not drawn) for me?
Ans. inactive

Qu. Can you look up the reported call for COCC(C)N(C(=O)CCl)c1c(C)csc1C (stereo not drawn) for me?
Ans. inactive

Qu. Can you look up the reported call for CC(C)N1C(=O)c2ccccc2NS1(=O)=O for me?
Ans. inactive

Qu. Can you look up the reported call for CCN(CC)C(=O)C(C)Oc1cccc2ccccc12 (stereo not drawn) for me?
Ans. inactive

Qu. Can you look up the reported call for CC(C)Nc1nc(Cl)nc(NC(C)C)n1 for me?
Ans. inactive

Qu. Can you look up the reported call for COC(=O)NS(=O)(=O)c1ccc(N)cc1 for me?
Ans. inactive

Qu. Can you look up the reported call for OC(c1ccc(Cl)cc1)(c1ccc(Cl)cc1)C(Cl)(Cl)Cl for me?
Ans. active

Qu. Can you look up the reported call for C=CCOC(=O)C(C)(C)OC(=O)c1cc(-n2c(=O)cc(C(F)(F)F)n(C)c2=O)ccc1Cl for me?
Ans. inactive
